The entries below are paired with their reported fold activation, T-cell proliferation, 22 nM, non-anchored, donor 1.
# ASSAYED_TARGET: T1, human GITR (amino acids M1-V241, NCBI Accession #NP_004186.1) expressed on cells (human, UniProt Q9Y5U5 26-241)
# T1 sequence: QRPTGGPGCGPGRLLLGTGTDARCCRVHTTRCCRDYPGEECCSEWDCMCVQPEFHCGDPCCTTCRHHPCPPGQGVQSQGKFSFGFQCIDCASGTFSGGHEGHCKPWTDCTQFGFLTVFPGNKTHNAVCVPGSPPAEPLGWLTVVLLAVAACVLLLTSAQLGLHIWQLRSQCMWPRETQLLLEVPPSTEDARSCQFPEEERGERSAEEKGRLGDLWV
# PROCEDURE_SUMMARY: cell-based or functional assay

Examples with answers:
| BINDER | ASSAY_RESULT |
| --- | --- |
| H4H14516P (antibody, human IgG4, V domains shown, human IgG4 (H4H)) VH: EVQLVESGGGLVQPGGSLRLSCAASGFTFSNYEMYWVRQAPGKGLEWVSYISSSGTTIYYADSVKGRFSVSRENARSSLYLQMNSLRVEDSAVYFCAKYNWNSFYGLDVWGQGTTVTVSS VL: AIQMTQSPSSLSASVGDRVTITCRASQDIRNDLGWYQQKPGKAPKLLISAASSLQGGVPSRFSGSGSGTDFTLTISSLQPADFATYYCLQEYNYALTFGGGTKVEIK | 0.7 fold |
| H4H14476P (antibody, human IgG4, V domains shown, human IgG4 (H4H)) VH: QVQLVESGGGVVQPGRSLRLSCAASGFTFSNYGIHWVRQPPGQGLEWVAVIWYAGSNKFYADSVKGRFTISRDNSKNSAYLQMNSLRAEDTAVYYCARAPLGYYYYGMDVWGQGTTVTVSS VL: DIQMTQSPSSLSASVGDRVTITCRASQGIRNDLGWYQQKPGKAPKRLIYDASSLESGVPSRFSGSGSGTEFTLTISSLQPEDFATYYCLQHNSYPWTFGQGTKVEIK | 0.7 fold |
| H4H14525P (antibody, human IgG4, V domains shown, human IgG4 (H4H)) VH: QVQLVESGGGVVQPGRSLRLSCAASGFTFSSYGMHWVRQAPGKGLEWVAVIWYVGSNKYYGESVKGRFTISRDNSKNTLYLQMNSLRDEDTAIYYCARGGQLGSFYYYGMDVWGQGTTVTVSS VL: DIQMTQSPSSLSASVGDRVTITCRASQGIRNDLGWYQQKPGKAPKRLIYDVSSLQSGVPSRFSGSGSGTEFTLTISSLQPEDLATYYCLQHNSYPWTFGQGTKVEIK | 0.7 fold |
| H4H14521P (antibody, human IgG4, V domains shown, human IgG4 (H4H)) VH: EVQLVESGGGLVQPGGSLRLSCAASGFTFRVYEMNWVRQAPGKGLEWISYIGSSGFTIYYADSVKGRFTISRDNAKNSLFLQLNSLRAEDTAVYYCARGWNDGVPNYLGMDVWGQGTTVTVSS VL: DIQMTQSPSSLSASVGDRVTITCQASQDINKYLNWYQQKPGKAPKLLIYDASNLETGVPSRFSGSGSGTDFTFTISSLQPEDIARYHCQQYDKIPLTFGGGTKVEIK | 0.5 fold |

# input Name the recorded fold activation, T-cell proliferation, 22 nM, non-anchored, donor 1 of the binder listed here: H4H14528P (antibody, human IgG4, V domains shown, human IgG4 (H4H)) VH: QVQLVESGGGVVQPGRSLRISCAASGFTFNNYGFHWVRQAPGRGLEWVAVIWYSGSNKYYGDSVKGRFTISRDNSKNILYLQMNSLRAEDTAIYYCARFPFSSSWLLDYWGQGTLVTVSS VL: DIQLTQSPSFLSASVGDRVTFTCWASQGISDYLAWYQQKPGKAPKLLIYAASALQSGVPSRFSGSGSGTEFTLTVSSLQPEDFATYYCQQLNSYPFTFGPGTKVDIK
# output 0.6 fold

# input Annotate the binder H4H14469P (antibody, human IgG4, V domains shown, human IgG4 (H4H)) VH: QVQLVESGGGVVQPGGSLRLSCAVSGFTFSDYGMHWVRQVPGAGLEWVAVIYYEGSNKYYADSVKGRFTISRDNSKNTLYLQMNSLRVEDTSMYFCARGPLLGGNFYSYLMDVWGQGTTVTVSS VL: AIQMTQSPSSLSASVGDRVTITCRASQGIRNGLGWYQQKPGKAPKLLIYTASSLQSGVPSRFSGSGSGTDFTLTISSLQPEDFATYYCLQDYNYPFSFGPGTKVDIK with its measured fold activation, T-cell proliferation, 22 nM, non-anchored, donor 1.
# output 0.9 fold

# input Entry H4H14475P (antibody, human IgG4, V domains shown, human IgG4 (H4H)) VH: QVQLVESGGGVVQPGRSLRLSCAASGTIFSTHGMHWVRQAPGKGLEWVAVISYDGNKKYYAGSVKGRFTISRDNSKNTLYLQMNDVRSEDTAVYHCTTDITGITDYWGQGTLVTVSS VL: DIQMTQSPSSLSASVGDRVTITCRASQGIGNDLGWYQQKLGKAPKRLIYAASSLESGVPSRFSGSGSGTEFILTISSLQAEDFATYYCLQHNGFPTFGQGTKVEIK needs its fold activation, T-cell proliferation, 22 nM, non-anchored, donor 1 filled in; supply it.
# output 0.7 fold

# input Determine from records and report fold activation, T-cell proliferation, 22 nM, non-anchored, donor 1 for H4H14470P (antibody, human IgG4, V domains shown, human IgG4 (H4H)) VH: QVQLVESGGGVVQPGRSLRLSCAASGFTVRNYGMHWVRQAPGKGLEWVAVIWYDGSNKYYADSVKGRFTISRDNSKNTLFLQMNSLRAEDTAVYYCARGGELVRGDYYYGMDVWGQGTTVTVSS VL: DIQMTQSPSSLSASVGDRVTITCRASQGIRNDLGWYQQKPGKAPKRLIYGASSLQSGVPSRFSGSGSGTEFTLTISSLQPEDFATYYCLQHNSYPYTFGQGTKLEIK
# output 0.7 fold

# input Provide one value: measured fold activation, T-cell proliferation, 22 nM, non-anchored, donor 1 of H4H14508P (antibody, human IgG4, V domains shown, human IgG4 (H4H)) VH: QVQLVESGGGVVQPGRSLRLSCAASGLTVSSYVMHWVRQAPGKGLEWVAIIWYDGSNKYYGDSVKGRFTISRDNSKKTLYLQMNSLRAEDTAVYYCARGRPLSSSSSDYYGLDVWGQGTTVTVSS VL: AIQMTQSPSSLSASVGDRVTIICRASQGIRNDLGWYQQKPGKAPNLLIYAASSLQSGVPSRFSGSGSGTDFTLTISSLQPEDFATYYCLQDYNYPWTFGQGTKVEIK
# output 0.7 fold
